Overview of recorded log10 IC50 for various molecules
testedTarget: VR1/TRPV1 receptor (Homo sapiens)
assayProcedure: IC50 (human) after pH stimulus
Format: cell-based
cond: table 4
Values reflect log10 of reported IC50 (nM).

Some solved entries appear below for comparison.
| molecule | testedTarget | measurement |
| --- | --- | --- |
| CC(C)COc1nc(C(F)(F)F)ccc1CNC(=O)C(C)c1ccc(NS(C)(=O)=O)c(F)c1 (stereo not drawn) | VR1/TRPV1 receptor (Homo sapiens) | 1.72 |
| CCCCCOc1nc(C(F)(F)F)ccc1CNC(=O)C(C)c1ccc(NS(C)(=O)=O)c(F)c1 (stereo not drawn) [Example 375] | VR1/TRPV1 receptor (Homo sapiens) | 1.48 |

-- ask Quick one: log10 IC50 for CCCCOC1CCN(c2nc(C(F)(F)F)ccc2CNC(=O)C(C)c2ccc(NS(C)(=O)=O)c(F)c2)CC1 (stereo not drawn) ?
-- reply 1.45

-- ask Quick one: log10 IC50 for CC(C(=O)NCc1ccc(C(F)(F)F)cc1OCc1ccccc1)c1ccc(NS(C)(=O)=O)c(F)c1 (stereo not drawn) ?
-- reply 1.54

-- ask Quick one: log10 IC50 for CC(C(=O)NCc1ccc(C(F)(F)F)nc1OCC1CCC1)c1ccc(NS(C)(=O)=O)c(F)c1 (stereo not drawn) ?
-- reply 1.61

-- ask Quick one: log10 IC50 for CC(C(=O)NCc1ccc(C(F)(F)F)nc1OCC1CC1C)c1ccc(NS(C)(=O)=O)c(F)c1 (stereo not drawn) ?
-- reply 0.71

-- ask Quick one: log10 IC50 for Cc1ccc(Cl)cc1Nc1nc(C(F)(F)F)ccc1CNC(=O)C(C)c1ccc(NS(C)(=O)=O)c(F)c1 (stereo not drawn) ?
-- reply 2.15

====

Overview of recorded inhibition at 1 µM for various molecules
testedTarget: VR1/TRPV1 receptor (Homo sapiens, UniProt Q8NER1)
Sequence (Q8NER1 whole entry): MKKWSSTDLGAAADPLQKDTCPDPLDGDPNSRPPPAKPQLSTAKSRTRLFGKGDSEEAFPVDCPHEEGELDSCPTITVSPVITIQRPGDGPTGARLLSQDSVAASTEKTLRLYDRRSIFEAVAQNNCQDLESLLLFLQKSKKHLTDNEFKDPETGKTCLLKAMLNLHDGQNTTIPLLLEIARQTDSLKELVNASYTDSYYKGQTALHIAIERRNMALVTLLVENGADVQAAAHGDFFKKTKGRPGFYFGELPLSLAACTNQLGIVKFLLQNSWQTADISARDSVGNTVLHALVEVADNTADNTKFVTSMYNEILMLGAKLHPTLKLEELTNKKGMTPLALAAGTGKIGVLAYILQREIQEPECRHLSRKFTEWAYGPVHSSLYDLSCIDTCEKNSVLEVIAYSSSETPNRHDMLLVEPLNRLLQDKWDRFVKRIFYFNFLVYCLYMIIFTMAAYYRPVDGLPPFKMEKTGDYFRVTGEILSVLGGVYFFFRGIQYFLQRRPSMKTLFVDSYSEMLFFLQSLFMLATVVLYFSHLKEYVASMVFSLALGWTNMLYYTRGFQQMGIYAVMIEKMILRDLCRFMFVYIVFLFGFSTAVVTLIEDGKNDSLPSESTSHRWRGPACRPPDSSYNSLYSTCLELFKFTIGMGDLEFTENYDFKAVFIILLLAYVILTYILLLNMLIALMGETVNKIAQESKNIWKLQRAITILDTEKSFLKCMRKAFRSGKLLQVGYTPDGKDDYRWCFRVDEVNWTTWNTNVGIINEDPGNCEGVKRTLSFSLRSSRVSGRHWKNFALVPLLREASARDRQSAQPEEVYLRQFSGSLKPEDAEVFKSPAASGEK
assayProcedure: IC50 (human) after pH stimulus
Assay type: cell-based
cond: @ 1 μM; ne = no effect; read-out: inhibition in percent, IC50 (human) after pH stimulus
Give the number; % is assumed, so skip it.

-- ask Quick one: inhibition at 1 µM for CC(C(=O)NCc1ccc(C(F)(F)F)nc1Nc1ccc(F)cc1)c1ccc(NS(C)(=O)=O)c(F)c1 (stereo not shown) [Compound 112] ?
-- reply 26

-- ask Quick one: inhibition at 1 µM for CC(C(=O)NCc1ccc(C(F)(F)F)cc1N1CCN(c2ccc(C(F)(F)F)cc2)CC1)c1ccc(NS(C)(=O)=O)c(F)c1 (stereo not shown) [Compound 248] ?
-- reply 63

-- ask Quick one: inhibition at 1 µM for CC(C(=O)NCc1ccc(C(F)(F)F)nc1N1CCN(c2ncccc2Cl)CC1C)c1ccc(NS(C)(=O)=O)c(F)c1 (stereo not shown) [Example 194] ?
-- reply 21

-- ask Quick one: inhibition at 1 µM for CC(C(=O)NCc1ccc(C(F)(F)F)nc1OCc1ccccn1)c1ccc(NS(C)(=O)=O)c(F)c1 (stereo not shown) [Example 202] ?
-- reply 30

====

testedTarget: VR1/TRPV1 receptor (Homo sapiens, UniProt Q8NER1)
assayProcedure: IC50 (human) after pH stimulus
Type: cell-based
cond: table 4
propertyMeasured: IC50 (nM)
Give the number; nM is assumed, so skip it.

Some solved entries appear below for comparison.
| molecule | IC50 [nM] |
| --- | --- |
| CC(C(=O)NCc1ccc(C(F)(F)F)nc1-c1cccc(F)c1)c1ccc(NS(C)(=O)=O)c(F)c1 (stereo not shown) | 63.6 |
| CC(C(=O)NCc1ccc(C(F)(F)F)nc1N1CC=C(c2ccc(F)cc2)CC1)c1ccc(NS(C)(=O)=O)c(F)c1 (stereo not shown) | 159 |
| CCCCOc1nc(C(C)(C)C)ccc1CNC(=O)C(C)c1ccc(NS(C)(=O)=O)c(F)c1 (stereo not shown) | 55 |
| CC(C(=O)NCc1ccc(C(F)(F)F)nc1-c1ccc(N(C)C)cc1)c1ccc(NS(C)(=O)=O)c(F)c1 (stereo not shown) | 414 |
| CC(C(=O)NCc1ccc(C(F)(F)F)nc1C=Cc1ccccc1)c1ccc(NS(C)(=O)=O)c(F)c1 (stereo not shown) | 85 |
| CC(C(=O)NCc1ccc(C(F)(F)F)nc1N1CCC2(CC1)CC(C(C)(C)C)=NO2)c1ccc(NS(C)(=O)=O)c(F)c1 (stereo not shown) | 281 |

Here is another molecule to look at.
-- ask Quick one: IC50 for CCCOc1nc(C(C)(C)C)ccc1CNC(=O)C(C)c1ccc(NS(C)(=O)=O)c(F)c1 (stereo not shown) ?
-- reply 182
